Data credit: paper PMC4343023

# System Under Test: CquiOBP5 (Culex quinquefasciatus, UniProt C7BDZ9)
# Sequence (C7BDZ9 entry or part of it): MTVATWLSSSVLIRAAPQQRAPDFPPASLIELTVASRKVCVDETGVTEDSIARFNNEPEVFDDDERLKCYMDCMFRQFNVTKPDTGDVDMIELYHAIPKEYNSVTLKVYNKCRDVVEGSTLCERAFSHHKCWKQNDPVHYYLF
# Method Summary: biochemical
# Format: binding
# Details: CquiOBP5; residual NPN fluorescence, normalized to 100 prior to ligand; screen at 2–20 μM ligand
Readout Kind: Int (fluorescence emission)
Write no unit; give the number alone.

The reported Int (fluorescence emission) value, CquiOBP5 (Culex quinquefasciatus, UniProt C7BDZ9), for Cc1c[nH]c2ccccc12 reads 62

Lab note: molecule C=CC(C)(O)CCC=C(C)C (centres unmarked) tested on CquiOBP5 (Culex quinquefasciatus, UniProt C7BDZ9); recorded Int (fluorescence emission) was 86

Note to self: Int (fluorescence emission) of CCOC(=O)Cc1ccccc1 [Ethyl 2-phenylacetate, ethyl 2-phenylacetate] with CquiOBP5 (Culex quinquefasciatus, UniProt C7BDZ9) was 91

Reading of Int (fluorescence emission) for CCCCCCCCC=O with CquiOBP5 (Culex quinquefasciatus, UniProt C7BDZ9): 46.5

The reported Int (fluorescence emission) value, CquiOBP5 (Culex quinquefasciatus, UniProt C7BDZ9), for COC(=O)c1ccccc1O [Methyl salicylate, methyl salicylate] reads 89

Reported CquiOBP5 (Culex quinquefasciatus, UniProt C7BDZ9) Int (fluorescence emission) for item Cc1cc(C)cc(O)c1 was 93

Int (fluorescence emission) value, target or system CquiOBP5 (Culex quinquefasciatus, UniProt C7BDZ9), for CCC(C)OC(=O)N1CCCCC1CCO (centres unmarked) : 45

So the reported Int (fluorescence emission) for C#CC(O)CCCCC (centres unmarked) , on CquiOBP5 (Culex quinquefasciatus, UniProt C7BDZ9), turned out to be 62.2

CquiOBP5 (Culex quinquefasciatus, UniProt C7BDZ9) assay, molecule CC(C)[C@]12CC(=O)[C@H](C)[C@H]1C2 , recorded Int (fluorescence emission) = 90

CquiOBP5 (Culex quinquefasciatus, UniProt C7BDZ9) assay, molecule C=CCc1ccc(O)c(OC)c1 , recorded Int (fluorescence emission) = 57.5

CC(=O)CCC=C(C)C on CquiOBP5 (Culex quinquefasciatus, UniProt C7BDZ9) gives Int (fluorescence emission) = 66

Item CCc1ccc(O)cc1 ; assay system CquiOBP5 (Culex quinquefasciatus, UniProt C7BDZ9); Int (fluorescence emission) reported as 84

Cc1ccc(O)cc1 tested on CquiOBP5 (Culex quinquefasciatus, UniProt C7BDZ9) gave Int (fluorescence emission): 90

# value of Int (fluorescence emission), CquiOBP5 (Culex quinquefasciatus, UniProt C7BDZ9), item CCCCN(CCC(=O)OCC)C(C)=O [IR3535, ethyl 3-[acetyl(butyl)amino]propanoate] = 67
